Where these numbers come from: patent US7547690B2

For each of the molecules below, state its IC50.
- TARGET_OR_SYSTEM: HCV NS5B (Hepatitis C virus genotype 1b, UniProt Q9WMX2)
- Construct: The protein was expressed with an 18 amino acid C-terminal truncation to enhance the solubility; made in house; host or cells: E. coli BL21(DE3)
- Sequence (Q9WMX2 2420-2992): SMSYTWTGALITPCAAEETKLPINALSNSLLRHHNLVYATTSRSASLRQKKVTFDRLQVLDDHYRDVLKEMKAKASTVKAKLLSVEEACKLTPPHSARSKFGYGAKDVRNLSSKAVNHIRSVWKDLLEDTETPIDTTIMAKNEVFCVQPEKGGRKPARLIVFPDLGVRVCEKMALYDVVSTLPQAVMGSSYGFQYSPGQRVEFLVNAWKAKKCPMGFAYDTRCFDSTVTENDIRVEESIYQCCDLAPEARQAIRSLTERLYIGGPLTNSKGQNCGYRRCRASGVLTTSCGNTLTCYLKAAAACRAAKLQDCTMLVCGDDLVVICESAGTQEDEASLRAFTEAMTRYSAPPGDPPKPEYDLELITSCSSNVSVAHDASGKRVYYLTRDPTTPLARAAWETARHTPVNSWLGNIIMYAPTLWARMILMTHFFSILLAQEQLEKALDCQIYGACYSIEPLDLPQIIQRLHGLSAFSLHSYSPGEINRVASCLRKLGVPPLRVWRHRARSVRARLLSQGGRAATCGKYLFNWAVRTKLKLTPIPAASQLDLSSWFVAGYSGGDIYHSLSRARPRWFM
- ASSAY_SUMMARY: HCV NS5B RdRp enzyme assay (standard / modified)
- Assay type: biochemical
- DETAILS: HCV RdRp genotype 1b; standard or modified assay not specified; read-out: IC50

Look at this molecule and give its reported IC50. COc1ccc2c(c1)C1CC1(C(=O)N1CCN3CCC1C3)Cn1c-2c(C2CCCCC2)c2ccc(C(=O)NS(=O)(=O)N(C)C)cc21 (stereo not drawn)
2.4 to 500 nM

Look at this molecule and give its reported IC50. COc1ccc2c(c1)C1CC1(C(=O)N1CC3(C)CN(C)CC(C)(C1)C3)Cn1c-2c(C2CCCCC2)c2ccc(C(=O)NS(C)(=O)=O)cc21 (stereo not drawn)
2.4 to 500 nM

Look at this molecule and give its reported IC50. COc1ccc2c(c1)C1CC1(C(=O)N1C[C@H]3C[C@@H]1CN3CC(C)C)Cn1c-2c(C2CCCCC2)c2ccc(C(=O)NS(=O)(=O)N(C)C)cc21 (stereo partly drawn)
2.4 to 500 nM

Look at this molecule and give its reported IC50. COc1ccc2c(c1)C1CC1(C(=O)N1C3CCCC1CN(C)C3)Cn1c-2c(C2CCCCC2)c2ccc(C(=O)NS(=O)(=O)C3CC3)cc21 (stereo not drawn)
2.4 to 500 nM

Look at this molecule and give its reported IC50. COc1ccc2c(c1)C1CC1(C(=O)N1CCN3CCC1CC3)Cn1c-2c(C2CCCCC2)c2ccc(C(=O)NS(=O)(=O)C3CC3)cc21 (stereo not drawn) [drawing 50]
2.4 to 500 nM

Look at this molecule and give its reported IC50. COc1ccc2c(c1)[C@@H]1C[C@]1(C(=O)N1CC3CC1CN3C)Cn1c-2c(C2CCCCC2)c2ccc(C(=O)NS(=O)(=O)N(C)C)cc21 (stereo partly drawn)
< 20 nM
